experimental target: full length NS3/4a (Hepatitis C virus genotype 1b (isolate BK) (HCV))
test: NS3 Protease Assay (Example A), FRET-based
Format: biochemical
run parameters: HCV NS3 protease assay, full length NS3/4a; read-out: Assay A IC50 (μM) average
Protocol: The HCV NS3 protease functions have been extensively studied and are considered as potential targets for antiviral therapy: see for example the many references listed in the introductory section of this application. Therefore, the activity of the compounds of the invention as anti-HCV agents was assessed using a full length HCV NS3 protease. […]
Kindly supply the reported IC50 values for the records listed here.
Give bare numbers, in µM.

Worked cases, IC50 given:
C[C@@H](CC(N)=O)N[C@H](CC1CC1)c1ccc(Cl)c(C(=O)c2ccc(N)nc2)c1F; 0.5
[2H]C([2H])([2H])C([2H])([2H])[C@@H](N[C@H](C)CC(N)=O)c1ccc(Cl)c(C(=O)c2ccc(N)c(Cl)c2)c1F; 0.26
CC[C@@H](N[C@@H](C)CC(=O)NCCO)c1ccc(Cl)c(C(=O)c2ccc(N)nc2)c1F; 0.49

Please supply IC50 for each of the following items, keeping them in order.
1. CC[C@@H](NCCC(N)=O)c1ccc(Cl)c(C(=O)c2cccnc2)c1F
2. CC[C@@H](N[C@@H](C)CC(N)=O)c1ccc(Cl)c(C(=O)c2ccncc2)c1F
3. CC[C@H](NC(=N)N)c1ccc(Cl)c(C(=O)c2cccnc2)c1F

// result
1: 0.59; 2: 0.11; 3: 1.3

* * *

experimental target: full length NS3/4a (Hepatitis C virus genotype 1b (isolate BK) (HCV), UniProt P26663)
Sequence (P26663 1027-1657): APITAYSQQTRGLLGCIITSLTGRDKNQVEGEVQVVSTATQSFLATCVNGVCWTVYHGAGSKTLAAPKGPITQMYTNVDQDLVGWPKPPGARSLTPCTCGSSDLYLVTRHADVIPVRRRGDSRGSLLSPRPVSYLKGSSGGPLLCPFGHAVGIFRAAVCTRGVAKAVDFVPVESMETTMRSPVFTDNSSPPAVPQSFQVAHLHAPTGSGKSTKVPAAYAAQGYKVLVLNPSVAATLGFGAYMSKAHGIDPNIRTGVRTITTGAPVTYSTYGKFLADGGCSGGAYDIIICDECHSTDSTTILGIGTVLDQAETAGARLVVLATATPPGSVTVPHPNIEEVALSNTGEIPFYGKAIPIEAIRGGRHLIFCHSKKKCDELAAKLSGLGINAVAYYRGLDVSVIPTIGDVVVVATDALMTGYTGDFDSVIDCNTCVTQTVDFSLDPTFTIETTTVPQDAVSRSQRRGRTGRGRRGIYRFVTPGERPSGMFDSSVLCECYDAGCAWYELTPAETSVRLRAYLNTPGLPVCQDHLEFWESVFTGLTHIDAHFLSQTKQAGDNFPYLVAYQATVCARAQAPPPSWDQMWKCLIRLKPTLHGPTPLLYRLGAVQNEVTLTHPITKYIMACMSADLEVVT
test: NS3 Protease Assay (Example A), FRET-based
Assay type: biochemical
run parameters: HCV NS3 protease assay, full length NS3/4a; read-out: Assay A IC50 (μM) average
metric name: IC50
Enter the number, and then the unit.

State recorded IC50 for all listed molecules.
1. CC[C@@H](N)c1ccc(Cl)c(C(=O)c2cc[n+]([O-])cc2)c1F [Example 42]
2. CC[C@@H](N[C@H](C)CC(N)=O)c1ccc(Cl)c(C(=O)c2cc(C)c(N)cn2)c1F [Example 246]
3. CC[C@@H](N[C@H](C)CC(N)=O)c1ccc(C)c(C(=O)c2ccccc2)c1F [Example 151]
4. CC[C@@H](N)c1ccc(Cl)c(C(=O)c2cccc(CO)c2)c1F [Example 54]

// result
["0.53 µM", "3.9 µM", "0.49 µM", "0.14 µM"]

* * *

For each record, write down the corresponding CC50 at 72 h.
test: Replicon Assay (Example B), Alamar Blue cytotoxicity CC50
Type: cell-based
run parameters: human, lower value of the cell pair

Completed entries (count: 3):
CC[C@@H](N[C@@H](C)CC(N)=O)c1ccc(Cl)c(C(=O)c2ccc(N)nc2)c1F [Example 81]; > 3000 nM
Cc1cc(C(=O)c2c(Cl)ccc([C@H](N[C@@H](C)CC(N)=O)C3CC3)c2F)ccc1N [Example 262]; > 1000 nM
CC[C@H](NCCO)c1ccc(Cl)c(C(=O)c2ccccc2)c1F [Example 171]; > 3000 nM

Quick one: give me CC50 at 72 h for each item below, same order please.
1. C[C@@H](CC(N)=O)N[C@@H](c1ccc(Cl)c(C(=O)c2ccc(C#N)cn2)c1F)C1CC1 [Example 238]
2. CC[C@@H](NC(C)(C)CC(N)=O)c1ccc(Cl)c(C(=O)c2cccnc2)c1F [Example 113]
3. CC[C@@H](CC(N)=O)N[C@H](CC)c1ccc(Cl)c(C(=O)c2ccc(N)nc2)c1F [Example 225]
4. C[C@@H](CC(N)=O)N[C@@H](c1ccc(Cl)c(C(=O)c2ccc(CO)cc2)c1F)C1CC1 [Example 263]
5. CC[C@@H](N[C@@H](C)CC(=O)NCCN)c1ccc(Cl)c(C(=O)c2ccccc2)c1F [Example 88]
6. CC[C@@H](N)c1ccc(Cl)c(C(=O)c2ccc(C#N)cc2)c1F [Example 9]

// result
1. > 1000 nM
2. > 3000 nM
3. > 3000 nM
4. 79000 nM
5. > 3000 nM
6. > 3000 nM

For every item below, please supply its CC50 at 72 h.
1. COc1cc(C(=O)c2c(Cl)ccc([C@H](N[C@@H](C)CC(N)=O)C3CC3)c2F)ccc1C#N [Example 275]
2. CCC[C@@H](N[C@@H](C)CC(N)=O)c1ccc(Cl)c(C(=O)c2ccc(N)nc2)c1F [Example 258]
3. CC[C@@H](N[C@@H](C)CC(N)=O)c1ccc(Cl)c(C(=O)c2ccc(F)c(F)c2)c1F [Example 90]

// result
1: > 3000 nM; 2: > 1000 nM; 3: > 3000 nM

For every item below, please supply its CC50 at 72 h.
1. COc1ccc([C@H](N[C@@H](C)CC(N)=O)C2CC2)c(F)c1C(=O)c1cccc(F)c1 [Example 224]
2. CC[C@@H](N[C@@H](C)CC(N)=O)c1ccc(Cl)c(C(=O)c2ccc3c(c2)OCCN3)c1F [Example 249]
3. CC[C@@H](N[C@@H](C)CC(N)=O)c1ccc(Cl)c(C(=O)c2ccc(C#N)cc2)c1F [Example 91]
4. CC(C)C[C@@H](N[C@@H](C)CC(N)=O)c1ccc(Cl)c(C(=O)c2ccc(N)nc2)c1F [Example 269]
5. C[C@@H](CC(N)=O)N[C@@H](c1ccc(Cl)c(C(=O)c2ccc(N)nc2)c1F)C1CC1 [Example 154]

// result
> 3000 nM
> 1000 nM
> 10000 nM
> 3000 nM
> 10000 nM
